Molecular target: T1, EsCas13d, nuclease-dead (Eubacterium siraeum, UniProt B0MS50, R295A;H300A;R849A;H854A)
T1 sequence: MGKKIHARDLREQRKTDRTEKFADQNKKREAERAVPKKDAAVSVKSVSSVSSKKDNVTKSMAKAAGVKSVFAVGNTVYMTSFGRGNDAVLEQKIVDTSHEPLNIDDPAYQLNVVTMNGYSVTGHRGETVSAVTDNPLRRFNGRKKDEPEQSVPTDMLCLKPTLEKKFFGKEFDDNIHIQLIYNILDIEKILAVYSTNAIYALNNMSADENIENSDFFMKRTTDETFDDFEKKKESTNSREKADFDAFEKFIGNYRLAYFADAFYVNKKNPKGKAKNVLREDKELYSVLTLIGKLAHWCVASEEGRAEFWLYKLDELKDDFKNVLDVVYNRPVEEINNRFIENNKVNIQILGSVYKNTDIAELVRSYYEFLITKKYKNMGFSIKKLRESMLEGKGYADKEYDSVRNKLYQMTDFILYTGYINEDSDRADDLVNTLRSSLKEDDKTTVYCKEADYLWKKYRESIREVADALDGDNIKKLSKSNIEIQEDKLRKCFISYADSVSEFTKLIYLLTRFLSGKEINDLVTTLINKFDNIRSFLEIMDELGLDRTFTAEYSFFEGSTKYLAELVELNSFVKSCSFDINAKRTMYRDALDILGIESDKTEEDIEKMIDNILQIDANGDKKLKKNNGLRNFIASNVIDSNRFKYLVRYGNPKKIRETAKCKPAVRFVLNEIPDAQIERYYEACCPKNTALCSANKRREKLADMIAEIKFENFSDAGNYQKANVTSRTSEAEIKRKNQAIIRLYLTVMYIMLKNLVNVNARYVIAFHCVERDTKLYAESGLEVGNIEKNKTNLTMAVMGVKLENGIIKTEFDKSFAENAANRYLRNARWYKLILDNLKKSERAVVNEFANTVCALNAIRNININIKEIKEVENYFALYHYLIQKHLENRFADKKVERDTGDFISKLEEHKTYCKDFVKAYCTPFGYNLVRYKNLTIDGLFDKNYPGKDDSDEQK
Assay: crRNA (strand 1, pre-loaded); Mg2+; 40 mM Tris-HCl pH 7.5, 150 mM NaCl, 6 mM MgCl2, 1 mM DTT, 0.1% Tween-20, 0.2 mg/ml BSA; 25 C; 10 min per concentration, then washed
Conditions: tags: His6-TwinStrep-SUMO cleaved; N-terminal SNAP kept (SNAP-Surface 488); label: 3' end held by stalled T7 RNA polymerase
measurement-label: pKd
# log scale: pKd equals minus log10 of the concentration in mol/L

# binder, pKd
rows = [
    ("target 1 MT 5'PFS UCC 3'PFS UCG (mixed) RNA 1: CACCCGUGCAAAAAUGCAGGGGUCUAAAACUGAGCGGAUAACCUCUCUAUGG RNA 2: GGGAAUGGAUCCACAUCUACGAAUUCUCCCCAUAGAGAGGUUAUCCGCUCAUCGAGAUCGGAAGAGCACACGU", 7.69),
    ("target 1 MT 5'PFS GCU 3'PFS CCG (mixed) RNA 1: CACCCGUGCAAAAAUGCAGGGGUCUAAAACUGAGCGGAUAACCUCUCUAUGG RNA 2: GGGAAUGGAUCCACAUCUACGAAUUCGCUCCAUAGAGAGGUUAUCCGCUCACCGAGAUCGGAAGAGCACACGU", 7.40),
    ("target 2 MT 5'PFS ACA 3'PFS CUC (mixed) RNA 1: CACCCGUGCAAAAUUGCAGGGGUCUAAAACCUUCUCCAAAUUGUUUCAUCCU RNA 2: GGGAAUGGAUCCACAUCUACGAAUUCACAAGGAUGAAACAAUUUGGAGAAGCUCAGAUCGGAAGAGCACACGU", 8.17),
    ("target 1 insA 3' of 21,insU 3' of 18 (mixed) RNA 1: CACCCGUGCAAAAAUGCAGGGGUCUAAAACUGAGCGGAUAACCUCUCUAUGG RNA 2: GGGAAUGGAUCCACAUCUACGAAUUCGUACCAAUAUGAGAGGUUAUCCGCUCACCGAGAUCGGAAGAGCACACGU", 7.34),
    ("target 2 MT 5'PFS GUG 3'PFS AAU (mixed) RNA 1: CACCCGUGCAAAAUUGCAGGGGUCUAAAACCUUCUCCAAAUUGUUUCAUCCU RNA 2: GGGAAUGGAUCCACAUCUACGAAUUCGUGAGGAUGAAACAAUUUGGAGAAGAAUAGAUCGGAAGAGCACACGU", 8.07),
]

pKd reading for target 3 insU 3' of 13,insG 3' of 2 (mixed) RNA 1: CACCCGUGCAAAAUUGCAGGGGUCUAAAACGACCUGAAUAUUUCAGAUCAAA RNA 2: GGGAAUGGAUCCACAUCUACGAAUUCGUUUUUGAUCUGAUAAUAUUCAGGUGCUGCAGAUCGGAAGAGCACACGU : 7.45

pKd reading for target 2 MT 5'PFS GGA 3'PFS CUG (mixed) RNA 1: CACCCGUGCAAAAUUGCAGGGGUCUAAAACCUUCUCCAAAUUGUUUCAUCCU RNA 2: GGGAAUGGAUCCACAUCUACGAAUUCGGAAGGAUGAAACAAUUUGGAGAAGCUGAGAUCGGAAGAGCACACGU : 8.04

pKd reading for target 2 MT 5'PFS AAG 3'PFS UCU (mixed) RNA 1: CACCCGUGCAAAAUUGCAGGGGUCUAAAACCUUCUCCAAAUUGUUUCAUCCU RNA 2: GGGAAUGGAUCCACAUCUACGAAUUCAAGAGGAUGAAACAAUUUGGAGAAGUCUAGAUCGGAAGAGCACACGU : 7.70
